# Assay remarks: Cytotoxicity in HepG2.2.15 cells (cell morphology, Reed & Muench)
# Format: cell-based
# Measurement setup: human, pathological changes observed by microscope after 8 days, read-out: TC50
Readings of CC50 at 8 days for the listed compounds
Could you give the number and then its unit, please?

The following compounds have reported results that may help.
[[record]]
compound = "CCOC(=O)C1=C(CN2CCOCC2)NC(c2c(F)cc(F)cc2F)=NC1c1ccc(F)cc1Cl.Cl (stereo not shown) [Example 18, hydrochloride]"
readout_type = "CC50 at 8 days"
reported = "31 µM"

[[record]]
compound = "CCOC(=O)C1=C(CN2CCN(CC)CC2)NC(c2c(F)cc(F)cc2F)=NC1c1ccc(F)cc1Cl (stereo not shown)"
readout_type = "CC50 at 8 days"
reported = "41 µM"

[[record]]
compound = "CCOC(=O)C1=C(CN2CCOCC2)N=C(c2c(F)cc(F)cc2N2CCOCC2)NC1c1ccc(F)cc1Cl (stereo not shown)"
readout_type = "CC50 at 8 days"
reported = "55 µM"


(Q) Consider the compound shown here: CCOC(=O)C1=C(CN(CCO)CCO)NC(c2c(F)cc(F)cc2F)=NC1c1ccc(F)cc1Cl (stereo not shown) What is its recorded CC50 at 8 days?
(A) 54 µM
